Reported TGI values are given for each entry in this list.
tested on: CAKI-1 renal; assay: NCI tumour cell line growth inhibition, 48 h

* O=C(Nc1ccc(S(=O)(=O)Nc2nccs2)cc1)c1cccnc1Nc1cccc(Cl)c1 | 52.2 µM
* CN(C)CCCNc1c(O)c2c(c(O)c1Cl)C(=O)C=CC2=O | > 10 µM
* CCCN1C(=O)C/C(=C\C(C)=O)Nc2ccccc21 | > 100 µM
* CNc1ccccc1C(=O)N/N=C/C=C/c1ccccc1 | > 100 µM
* CCOC(=O)c1nc2cc(N3CCOCC3)c(F)cc2[nH]c1=O | > 100 µM
* O=C(Cc1nc2ccccc2s1)C(=O)Nc1ccc(Cl)cc1 | > 100 µM

Sample `Clc1ccc(N=C/C=C/Nc2ccc(Cl)cn2)nc1` ; TGI observed: 25.1 µM

For `COc1cccc(-c2nn(-c3ccccc3)cc2-c2ccnc(NCCNS(=O)(=O)c3ccc(Cl)cc3)c2)c1` the compound record lists TGI as > 100 µM

So for `CSC(=S)c1ccc(C(=S)SC)cc1` , the logged TGI turned out to be > 100 µM

Record O=c1c2ccccc2nc2n1NC(c1c(Cl)cccc1Cl)N2c1cccc(Cl)c1 (configuration not stated) , field TGI: 47.2 µM

# TGI of `Cc1c(N2C(=O)/C(=C/C=C/c3ccccc3)N=C2c2ccccc2)c(=O)n(-c2ccccc2)n1C` = > 100 µM

The compound listed as `CC(=O)N1CCC2(C=Nc3ccccc32)CC1` shows TGI equal to > 100 µM
